Where do the numbers come from? From patent US20240300886A1.

Measurement Protocol: Oral bioavailability in rats, Method A (plasma PK)
Type: in vivo, Sprague Dawley rats
Run Conditions: male, Sprague Dawley, rat plasma, 10 mg/kg po
Experimental Readout: Cmax (ng/mL)

1) CNC1(c2ccccc2Cl)CCCCC1=O (racemic) [racemic ketamine, ketamine]: 190

###

Reported half-life by item:
Measurement Protocol: Oral bioavailability in mice, Method B (plasma and brain PK)
Format: in vivo, C57BL/6 mice
Run Conditions: male, C57BL/6; mouse plasma, Method B, 1 mg/kg iv; read-out: t1/2 (iv)
Experimental Readout: half-life (min)

1. N[C@]1(c2ccc(F)cc2)CCCCC1=O: 86.4
2. CN[C@@]1(c2ccc(F)cc2)CCCCC1=O: 45
3. N[C@]1(c2cccc(F)c2)CCCCC1=O: 101
4. CN[C@]1(c2ccc(F)cc2)CCCCC1=O: 54.6

###

Measurement Protocol: Oral bioavailability in rats, Method B (plasma and brain PK)
Type: in vivo, Sprague Dawley rats
Run Conditions: male, Sprague Dawley; rat brain, Method B, 1 mg/kg po
Each item that follows carries a reported Cmax.
Experimental Readout: Cmax (ng/g)

1. CN[C@]1(c2ccc(F)cc2)CCCCC1=O [Compound 2S]: 47.6
2. CN[C@@]1(c2ccc(F)cc2)CCCCC1=O [Compound 2R]: 42.8
3. N[C@]1(c2ccc(F)cc2)CCCCC1=O [Compound 1S]: 167

###

Measurement Protocol: Oral bioavailability in mice, Method A (plasma and brain PK)
Assay type: in vivo, CD-1 mice
Run Conditions: male, CD-1, mouse plasma, 10 mg/kg iv, read-out: AUC0-inf (iv) (converted)
Experimental Readout: AUC(0-inf) (ng·h/mL)

1) CNC1(c2ccccc2Cl)CCCCC1=O (racemic) [racemic ketamine, ketamine]: 633

###

Measurement Protocol: Oral bioavailability in monkeys (plasma PK)
Type: in vivo, Cynomolgus monkeys
Run Conditions: male, cynomolgus monkey; monkey plasma, 1 mg/kg iv; read-out: AUC0-inf (iv) (converted)
Experimental Readout: AUC(0-inf)

1) CN[C@@]1(c2ccc(F)cc2)CCCCC1=O: 964 ng·h/mL

###

Recorded concentration at 1 h for the following compounds
Measurement Protocol: Comparative metabolism/PK of 2R and deuterated 7R in rats after oral administration
Assay type: in vivo, Sprague Dawley rats
Run Conditions: male, Sprague Dawley, rat, brain, oral, 10 mg/kg, rat brain, 1 h after 10 mg/kg po of 2R or 7R; read-out: Mean brain concentration
Experimental Readout: concentration at 1 h (ng/g)

1. [2H]C([2H])([2H])N[C@@]1(c2ccc(F)cc2)CCCCC1=O [Compound 7R]: 1770
2. N[C@@]1(c2ccc(F)cc2)CCCCC1=O [Compound 1R]: 3500
3. CN[C@]1(c2ccc(F)cc2)CCCCC1=O [Compound 2S]: 1510

###

Measurement Protocol: Oral bioavailability in minipigs (plasma PK)
Format: in vivo, Bama minipigs
Run Conditions: male, Bama; minipig plasma, 1 mg/kg po; read-out: AUC0-inf (po) (converted)
Experimental Readout: AUC(0-inf) (ng·h/mL)

1. CN[C@@]1(c2ccc(F)cc2)CCCCC1=O [Compound 2R]: 242

###

Catalogue of compounds with associated half-life
Measurement Protocol: Oral bioavailability in mice, Method B (plasma and brain PK)
Assay type: in vivo, C57BL/6 mice
Run Conditions: male, C57BL/6; mouse brain, Method B, 1 mg/kg iv; read-out: t1/2 (iv)
Experimental Readout: half-life

1. CN[C@]1(c2ccc(F)cc2)CCCCC1=O [Compound 2S]: 21.6 min
2. CN[C@@]1(c2ccc(F)cc2)CCCCC1=O [Compound 2R]: 23.4 min
3. N[C@]1(c2cccc(F)c2)CCCCC1=O [Compound 3S]: 26.4 min
4. N[C@]1(c2ccc(F)cc2)CCCCC1=O [Compound 1S]: 36.6 min
